Below, each of the compounds is paired with its reported melting point value.

Please review the following examples before continuing.
INSERT INTO measurements (compound, endpointresult) VALUES
  ('C[C@H](C(=O)NCc1ccc(C(F)(F)F)nc1N1CCCCC1)c1ccc(NS(C)(=O)=O)c(F)c1 [Example 10]', '75 to 79 °C'),
  ('CC(C(=O)NCc1ccc(C(F)(F)F)nc1N1CCCCC1)c1ccc(NS(C)(=O)=O)c(F)c1 (stereo not shown) [Example 2]', '75 to 79 °C'),
  ('Cc1nc(C(F)(F)F)ccc1CNC(=O)C(C)c1ccc(NS(C)(=O)=O)c(F)c1 (stereo not shown) [Example 1]', '149 to 152 °C');

Next compound, melting point to be filled in.
Kindly note the recorded melting point for CC(C(=O)NCc1ccc(C(F)(F)F)cc1N1CCCCC1)c1ccc(NS(C)(=O)=O)c(F)c1 (stereo not shown) [Example 3] , which is 126 to 127 °C
